B1: scFv; the commonest letter at each place (parent)
chain 1: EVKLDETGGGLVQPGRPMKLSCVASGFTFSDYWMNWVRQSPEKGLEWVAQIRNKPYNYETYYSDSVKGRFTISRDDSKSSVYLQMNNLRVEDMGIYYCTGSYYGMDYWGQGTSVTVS
chain 2: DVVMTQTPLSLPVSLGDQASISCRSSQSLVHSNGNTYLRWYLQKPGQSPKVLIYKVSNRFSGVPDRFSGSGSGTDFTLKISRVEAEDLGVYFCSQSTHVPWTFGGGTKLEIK

Variants of: B1
test_protocol: yeast surface expression (ratio to wild type); higher = more expressed
test_context: format: scFv 4-4-20, heavy + light
attribute_measured: yeast surface expression

| mutant_name | meas_value |
| --- | --- |
| chain 1 S30W Y32C | 0.838 |
| chain 1 S101A G104N | 0.72 |
| chain 1 Y102G | 0.965 |
| chain 1 Y32A M34S | 0.769 |

# return recorded yeast surface expression for input chain 1 Y103R G109V
0.47

Please give the documented yeast surface expression of chain 1 S30H V37F
0.754

Return the recorded yeast surface expression value; entry: chain 1 G100T M105G
0.878

Determine from records and report yeast surface expression for chain 1 T28A W33R N35I
0.622

Please give measured yeast surface expression of the following entry: chain 1 F29P W36E
0.482

Look up yeast surface expression of chain 1 F29A M34K V37T and report it.
0.628

Identify yeast surface expression associated with the variant chain 1 S30M M34P
2.67

# credit: the FLAb antibody collection (doi:10.7554/elife.23156)
